- Tested on: Pig umami receptor (T1R1/T1R3)
- Assay name: Screening assay for ligands: calcium influx via pig umami receptor in transfected CHO-K1 cells (Fluo-4 NW)
- Assay type: cell-based
- Applied conditions: treatment 10 mM; CHO-K1 cells with pig taste receptors and mouse G alpha 15
Lab note: anything with Absorbance Mean below 10000 is marked 1; values at 10000 or higher are marked 0.

- CC(C)C[C@H](N)C(=O)O [Leucine]: 1
- Cl.NCCCC[C@H](N)C(=O)O [Lysine HCl]: 1
- NC(CCP(=O)(O)O)C(=O)O [L-AP4]: 1
- N[C@@H](CC(=O)O)C(=O)O [Aspartate]: 0
- N[C@@H](CO)C(=O)O [Serine]: 1
